Origin of measurements: paper PMC11062922

Biological target: PKN2 (Homo sapiens)
Construct: a mixture of lysates from five cancer cell lines; endogenous in cells
Sequence (Q16513 whole entry): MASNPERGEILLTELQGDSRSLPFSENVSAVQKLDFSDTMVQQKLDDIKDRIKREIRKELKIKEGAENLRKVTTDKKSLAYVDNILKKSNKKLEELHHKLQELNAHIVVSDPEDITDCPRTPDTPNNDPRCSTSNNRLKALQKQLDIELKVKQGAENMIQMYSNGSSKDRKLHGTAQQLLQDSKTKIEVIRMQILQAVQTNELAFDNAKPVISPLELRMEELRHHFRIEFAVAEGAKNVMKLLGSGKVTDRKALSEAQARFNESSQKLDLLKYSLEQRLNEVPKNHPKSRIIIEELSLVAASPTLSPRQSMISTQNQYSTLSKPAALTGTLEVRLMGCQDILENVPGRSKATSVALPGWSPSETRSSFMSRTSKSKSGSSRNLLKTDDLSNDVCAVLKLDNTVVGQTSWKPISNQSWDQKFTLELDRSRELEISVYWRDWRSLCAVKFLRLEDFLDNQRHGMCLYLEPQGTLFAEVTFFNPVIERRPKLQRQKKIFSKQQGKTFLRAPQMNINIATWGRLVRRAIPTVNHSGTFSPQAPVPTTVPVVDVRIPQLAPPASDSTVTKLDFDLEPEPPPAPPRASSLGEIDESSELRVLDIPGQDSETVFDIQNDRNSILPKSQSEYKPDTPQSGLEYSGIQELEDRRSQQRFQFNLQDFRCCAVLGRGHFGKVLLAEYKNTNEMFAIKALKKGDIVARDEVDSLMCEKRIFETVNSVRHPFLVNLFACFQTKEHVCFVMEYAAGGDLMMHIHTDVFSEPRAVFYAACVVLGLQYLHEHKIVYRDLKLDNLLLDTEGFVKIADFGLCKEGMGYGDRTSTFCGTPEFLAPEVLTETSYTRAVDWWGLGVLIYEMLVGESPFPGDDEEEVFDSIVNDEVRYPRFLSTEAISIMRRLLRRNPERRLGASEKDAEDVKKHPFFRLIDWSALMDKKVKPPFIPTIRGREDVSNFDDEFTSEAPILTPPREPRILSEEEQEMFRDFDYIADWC
Assay: Kinobeads full dose-response competition binding: PKN2
Conditions: Gene Name PKN2; EC50 with Correction, doses in nM; read-out: apparent Kd
PROPERTY MEASURED: Kd (nM)

INSERT INTO results (compound, assay_target, property_measured, unit, result_number) VALUES
  ('CCn1c(-c2nonc2N)nc2c(C#CC(C)(C)O)nc(OCCN)cc21 [GSK902056A]', 'PKN2 (Homo sapiens)', 'Kd', 'nM', 401);

###

Quick list: pIC50 per entry.
Biological target: CK2alpha2 (CSNK2A2) (Homo sapiens)
Construct: purchased ProQinase
Sequence (P19784 whole entry): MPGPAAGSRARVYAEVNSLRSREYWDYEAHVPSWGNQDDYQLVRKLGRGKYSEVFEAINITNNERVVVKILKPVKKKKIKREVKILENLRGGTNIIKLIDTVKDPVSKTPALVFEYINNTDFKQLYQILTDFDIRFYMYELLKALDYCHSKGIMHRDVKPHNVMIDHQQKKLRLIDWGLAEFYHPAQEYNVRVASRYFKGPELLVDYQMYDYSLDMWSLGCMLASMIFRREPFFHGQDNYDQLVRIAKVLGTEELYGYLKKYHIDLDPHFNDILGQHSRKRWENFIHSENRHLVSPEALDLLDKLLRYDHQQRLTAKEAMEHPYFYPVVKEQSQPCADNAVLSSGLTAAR
Assay: Recombinant kinase activity assay (ProQinase, FlashPlate radiometric): CK2alpha2
Assay type: biochemical
Settings: recombinant kinase activity assay at KM (ATP); read-out: Activity IC50 CSNK2A2
pIC50: −log10 of the molar value.
PROPERTY MEASURED: pIC50

INSERT INTO measurements (molecule, result_number) VALUES
  ('COc1cc(Nc2ncc3c(C)nc(-c4cc5ccccc5[nH]4)n3n2)cc(OC)c1OC [GW869516X]', 7.47),
  ('CONC1=NC(=O)/C(=C/c2ccc3ncccc3c2)S1 [RO4613269-000]', 7.19);

###

Tested on: CDK9
Test: Kinobeads competition binding: CDK9
Design: species or system human
Conditions: target CDK9
PROPERTY MEASURED: CATDS

INSERT INTO results (structure_smiles_string, result) VALUES
  ('CCN1CCN(Cc2ccc(Nc3ncc(F)c(-c4cc(F)c5nc(C)n(C(C)C)c5c4)n3)nc2)CC1', 0.02947),
  ('N#CC1(c2ccc(NC(=O)c3cccnc3NCc3ccncc3)cc2)CCCC1', 0),
  ('CCc1cc2c(cc1N1CCC(N3CCOCC3)CC1)C(C)(C)c1[nH]c3cc(C#N)ccc3c1C2=O', 0),
  ('Nc1ncnc2[nH]c(-c3ccccc3)nc12', 0);

###

Target: PRKACA (Homo sapiens)
Construct: a mixture of lysates from five cancer cell lines; endogenous in cells
Assay: Kinobeads full dose-response competition binding: PRKACA
Settings: Gene Name PRKACA; EC50 with Correction, doses in nM; read-out: apparent Kd
PROPERTY MEASURED: Kd (nM)

INSERT INTO assay_data (molecule, assay_target, result_number) VALUES
  ('CCn1c(-c2nonc2N)nc2c(C#CC(C)(C)O)nc(OCCN)cc21 [GSK902056A]', 'PRKACA (Homo sapiens)', 212);

###

Target: PKN3 (Homo sapiens, UniProt Q6P5Z2)
Sequence (Q6P5Z2 whole entry): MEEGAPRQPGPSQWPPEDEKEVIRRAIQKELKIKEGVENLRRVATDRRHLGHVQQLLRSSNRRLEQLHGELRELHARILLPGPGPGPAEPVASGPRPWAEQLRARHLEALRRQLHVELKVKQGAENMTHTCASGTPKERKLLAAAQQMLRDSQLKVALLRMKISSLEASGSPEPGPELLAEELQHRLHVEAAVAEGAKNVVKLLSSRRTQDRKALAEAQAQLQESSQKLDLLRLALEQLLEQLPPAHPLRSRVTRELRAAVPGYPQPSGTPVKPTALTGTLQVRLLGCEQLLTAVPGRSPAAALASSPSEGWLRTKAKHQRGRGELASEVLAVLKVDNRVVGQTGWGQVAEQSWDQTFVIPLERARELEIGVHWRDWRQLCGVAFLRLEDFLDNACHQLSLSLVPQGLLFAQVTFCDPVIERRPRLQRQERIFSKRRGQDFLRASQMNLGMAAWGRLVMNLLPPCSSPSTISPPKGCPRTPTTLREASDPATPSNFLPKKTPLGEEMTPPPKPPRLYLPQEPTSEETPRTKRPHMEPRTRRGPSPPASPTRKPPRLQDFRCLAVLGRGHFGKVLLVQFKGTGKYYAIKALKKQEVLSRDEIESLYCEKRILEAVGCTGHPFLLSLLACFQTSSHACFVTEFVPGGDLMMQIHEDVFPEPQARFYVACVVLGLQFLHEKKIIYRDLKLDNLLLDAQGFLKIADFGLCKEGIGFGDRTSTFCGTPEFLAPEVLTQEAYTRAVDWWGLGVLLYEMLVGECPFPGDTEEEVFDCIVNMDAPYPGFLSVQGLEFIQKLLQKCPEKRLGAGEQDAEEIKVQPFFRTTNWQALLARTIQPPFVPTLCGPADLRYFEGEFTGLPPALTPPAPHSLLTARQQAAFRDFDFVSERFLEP
Test: NanoBRET in-cell target engagement in HEK293T cells: PKN3;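 further: Full-length PKN3 with C-terminal NanoLuc expressed in HEK293T cells, serial inhibitor dilutions competing against Kinase Tracer K5 at 500 nM, BRET read after 2 h at 37 °C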
Format: cell-based
Set-up: full-length PKN3, CSNK2A1 or CSNK2A2 ORF; host or cells: HEK293T
Settings: HEK293T cells, in-cell target engagement; read-out: IC50 PKN3 NanoBRET
pIC50: −log10 of the molar value.
PROPERTY MEASURED: pIC50

INSERT INTO results (compound, result_number) VALUES
  ('Fc1ccc(-c2c(-c3ccncc3)[nH]c3cccnc23)cc1 [RO1153853-000]', 5.10),
  ('CCn1c(-c2nonc2N)nc2c(C#CC(C)(C)O)nc(OCCN)cc21 [GSK902056A]', 7.10),
  ('NC[C@@](O)(c1ccc(Cl)cc1)c1ccc(-c2cn[nH]c2)cc1 [AT-13148, reference compound]', 5.69),
  ('NCc1ccc(-c2nc(-c3ccncc3)c(-c3ccc(Cl)c(O)c3)[nH]2)cc1 [SB-476429-A]', 7.07),
  ('CCn1c(-c2nonc2N)nc2c(C#CC(C)(C)O)nc(OCCNC)cc21 [GSK949675A]', 6.87),
  ('CCn1c(-c2nonc2N)nc2c(C#CC(C)(C)O)nc(CN3CCCC3)cc21 [GSK1000163A]', 4.96),
  ('CCn1c(-c2nonc2N)nc2c(-c3ccccc3)ncc(OCCCN)c21 [GSK260205A]', 7.13),
  ('Cc1cccc(-c2nc(Nc3ccncc3)c3sccc3n2)n1 [GW869641X]', 5.39);

###

Target: endogenous kinases and other proteins enriched by Kinobeads from mixed cancer cell lysates (Homo sapiens, UniProt Q15375)
Construct: endogenous in cells
Sequence (Q15375 28-998): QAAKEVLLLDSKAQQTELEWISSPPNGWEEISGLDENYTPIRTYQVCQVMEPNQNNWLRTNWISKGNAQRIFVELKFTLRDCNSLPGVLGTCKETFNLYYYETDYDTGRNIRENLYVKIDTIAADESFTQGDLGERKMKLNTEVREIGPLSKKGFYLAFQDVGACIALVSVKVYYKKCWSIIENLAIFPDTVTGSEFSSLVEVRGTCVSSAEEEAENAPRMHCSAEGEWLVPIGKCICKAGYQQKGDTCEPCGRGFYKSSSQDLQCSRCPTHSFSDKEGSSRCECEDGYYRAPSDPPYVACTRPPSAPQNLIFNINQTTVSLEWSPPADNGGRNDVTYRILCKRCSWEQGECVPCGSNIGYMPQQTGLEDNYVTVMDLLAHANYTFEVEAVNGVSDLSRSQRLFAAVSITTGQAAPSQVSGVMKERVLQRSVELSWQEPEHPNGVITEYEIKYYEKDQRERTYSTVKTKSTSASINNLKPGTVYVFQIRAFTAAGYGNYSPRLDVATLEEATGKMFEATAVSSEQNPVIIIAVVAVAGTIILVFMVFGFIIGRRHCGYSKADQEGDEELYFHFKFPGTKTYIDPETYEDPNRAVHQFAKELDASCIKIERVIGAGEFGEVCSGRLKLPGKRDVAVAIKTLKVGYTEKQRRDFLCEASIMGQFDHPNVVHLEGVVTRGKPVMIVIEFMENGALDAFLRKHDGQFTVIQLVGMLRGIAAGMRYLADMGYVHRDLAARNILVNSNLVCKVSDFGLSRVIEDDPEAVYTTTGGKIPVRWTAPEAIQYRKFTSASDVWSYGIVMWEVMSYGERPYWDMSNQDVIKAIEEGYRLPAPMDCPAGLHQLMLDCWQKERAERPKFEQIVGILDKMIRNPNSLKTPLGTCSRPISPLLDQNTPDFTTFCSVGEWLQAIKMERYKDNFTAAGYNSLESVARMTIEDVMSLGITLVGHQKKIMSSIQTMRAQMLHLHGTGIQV
Test: Kinobeads pulldown, full dose-response (eight doses)
Conditions: target EPHA7
PROPERTY MEASURED: EC50 (µM)

INSERT INTO measurements (structure_smiles_string, result_number) VALUES
  ('Cn1cc(-c2nc(N[C@@H]3CCCC[C@@H]3N)c(F)c3c2C(=O)NC3)cn1', 0.81);

###

Target: RIPK3 (Homo sapiens, UniProt Q9Y572)
Construct: endogenous in cells
Sequence (Q9Y572 whole entry): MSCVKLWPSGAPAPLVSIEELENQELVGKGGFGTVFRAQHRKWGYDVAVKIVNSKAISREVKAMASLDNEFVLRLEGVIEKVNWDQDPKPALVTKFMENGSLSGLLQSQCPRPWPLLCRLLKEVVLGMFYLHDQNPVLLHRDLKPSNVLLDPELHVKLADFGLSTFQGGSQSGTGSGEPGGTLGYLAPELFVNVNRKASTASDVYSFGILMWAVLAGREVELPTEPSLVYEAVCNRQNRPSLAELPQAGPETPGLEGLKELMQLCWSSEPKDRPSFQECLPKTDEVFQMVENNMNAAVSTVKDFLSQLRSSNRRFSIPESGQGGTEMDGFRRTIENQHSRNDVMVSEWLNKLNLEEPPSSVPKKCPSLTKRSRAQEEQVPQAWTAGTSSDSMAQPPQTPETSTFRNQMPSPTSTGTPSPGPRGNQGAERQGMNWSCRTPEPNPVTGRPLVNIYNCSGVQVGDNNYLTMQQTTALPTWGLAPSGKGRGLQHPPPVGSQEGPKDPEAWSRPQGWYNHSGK
Test: Kinobeads full dose-response competition binding: RIPK3
Settings: Gene Name RIPK3; EC50 with Correction, doses in nM; read-out: apparent Kd
PROPERTY MEASURED: Kd

INSERT INTO results (structure_smiles_string, assay_target, result) VALUES
  ('NCc1ccc(-c2nc(-c3ccncc3)c(-c3ccc(Cl)c(O)c3)[nH]2)cc1', 'RIPK3 (Homo sapiens, UniProt Q9Y572)', '289 nM');

###

Quick list: CATDS per entry.
Molecular target: CSNK2A1 (CK2) (Homo sapiens, UniProt P68400)
Construct: endogenous in cells
Sequence (P68400 whole entry): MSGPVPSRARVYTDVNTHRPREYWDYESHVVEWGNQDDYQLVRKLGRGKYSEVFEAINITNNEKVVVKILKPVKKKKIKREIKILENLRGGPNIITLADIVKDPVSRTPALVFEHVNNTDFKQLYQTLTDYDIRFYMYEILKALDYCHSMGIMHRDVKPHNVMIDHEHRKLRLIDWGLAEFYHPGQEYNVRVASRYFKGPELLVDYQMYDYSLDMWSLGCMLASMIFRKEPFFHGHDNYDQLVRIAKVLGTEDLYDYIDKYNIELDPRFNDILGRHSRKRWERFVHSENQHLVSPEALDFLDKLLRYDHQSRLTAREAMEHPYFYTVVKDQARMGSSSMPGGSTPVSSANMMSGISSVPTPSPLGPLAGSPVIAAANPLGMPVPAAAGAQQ
Assay: Kinobeads two-dose competition binding: CK2 (CSNK2A1)
Conditions: target CSNK2A1;CSNK2A3
PROPERTY MEASURED: CATDS

INSERT INTO assay_data (structure_smiles_string, assay_target, result_number) VALUES
  ('CCN1CCN(Cc2ccc(Nc3ncc(F)c(-c4cc(F)c5nc(C)n(C(C)C)c5c4)n3)nc2)CC1', 'CSNK2A1 (CK2) (Homo sapiens, UniProt P68400)', 0.05816),
  ('CCc1cc2c(cc1N1CCC(N3CCOCC3)CC1)C(C)(C)c1[nH]c3cc(C#N)ccc3c1C2=O', 'CSNK2A1 (CK2) (Homo sapiens, UniProt P68400)', 0),
  ('Nc1ncnc2[nH]c(-c3ccccc3)nc12', 'CSNK2A1 (CK2) (Homo sapiens, UniProt P68400)', 0),
  ('N#CC1(c2ccc(NC(=O)c3cccnc3NCc3ccncc3)cc2)CCCC1', 'CSNK2A1 (CK2) (Homo sapiens, UniProt P68400)', 0);

###

System: phosphorylation sites in RKO cells
Assay: Drug-perturbed phosphoproteome analysis in RKO cells
Assay type: cell-based, human
Settings: RKO cells, 1 µM for 1 hour
PROPERTY MEASURED: number of perturbed phosphorylation sites

INSERT INTO results (compound, assay_target, result) VALUES
  ('CCn1c(-c2nonc2N)nc2c(C#CC(C)(C)O)nc(OCCNC)cc21 [GSK949675A]', 'phosphorylation sites in RKO cells', 'far smaller'),
  ('CCn1c(-c2nonc2N)nc2c(C#CC(C)(C)O)nc(OCCN)cc21 [GSK902056A]', 'phosphorylation sites in RKO cells', 'far smaller');

###

Molecular target: endogenous kinases and other proteins enriched by Kinobeads from mixed cancer cell lysates (Homo sapiens)
Construct: endogenous in cells
Assay: Kinobeads pulldown, full dose-response (eight doses);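 further: competition with Kinobeads ε after inhibitor preincubation in lysate (5 mg/ml protein) for 45 min at 4 °C, DMSO control, doses 0.3–1,000 nM, label-free LC–MS/MS quantification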
Settings: target BMP2K
PROPERTY MEASURED: EC50 (nM)

INSERT INTO results (compound, property_measured, unit, result_number) VALUES
  ('Cn1cc(-c2nc(N[C@@H]3CCCC[C@@H]3N)c(F)c3c2C(=O)NC3)cn1 [TAK659]', 'EC50', 'nM', 537);

###

Target: RIPK3 (Homo sapiens)
Construct: endogenous in cells
Test: Kinobeads full dose-response competition binding: RIPK3
Details: Gene Name RIPK3; eight-dose curve fit, doses in nM
PROPERTY MEASURED: EC50 (nM)

INSERT INTO measurements (structure_smiles_string, property_measured, result_number) VALUES
  ('NCc1ccc(-c2nc(-c3ccncc3)c(-c3ccc(Cl)c(O)c3)[nH]2)cc1', 'EC50', 296);

###

Quick list: CATDS per entry.
Target: ACOX1 (Homo sapiens, UniProt Q15067)
Construct: endogenous in cells
Sequence (Q15067 1-660): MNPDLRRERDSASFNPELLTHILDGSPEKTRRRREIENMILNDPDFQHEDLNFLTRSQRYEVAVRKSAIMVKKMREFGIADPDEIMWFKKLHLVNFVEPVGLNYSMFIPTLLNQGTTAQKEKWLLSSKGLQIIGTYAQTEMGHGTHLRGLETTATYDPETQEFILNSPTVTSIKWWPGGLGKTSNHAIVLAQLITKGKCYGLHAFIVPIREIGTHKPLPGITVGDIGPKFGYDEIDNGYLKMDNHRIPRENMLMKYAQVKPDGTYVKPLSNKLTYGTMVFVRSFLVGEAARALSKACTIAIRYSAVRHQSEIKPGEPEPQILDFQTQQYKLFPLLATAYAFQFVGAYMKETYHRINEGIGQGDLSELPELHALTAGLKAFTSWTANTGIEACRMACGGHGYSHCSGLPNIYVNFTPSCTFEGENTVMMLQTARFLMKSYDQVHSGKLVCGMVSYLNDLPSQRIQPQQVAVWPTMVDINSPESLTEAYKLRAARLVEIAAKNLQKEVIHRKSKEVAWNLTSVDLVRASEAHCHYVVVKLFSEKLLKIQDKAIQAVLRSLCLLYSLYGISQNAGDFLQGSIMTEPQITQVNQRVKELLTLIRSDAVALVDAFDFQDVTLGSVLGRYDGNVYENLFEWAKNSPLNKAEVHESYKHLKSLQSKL
Assay: Kinobeads two-dose competition binding: ACOX1;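 further: competition of compounds with immobilized broad-spectrum kinase inhibitor beads in cell lysate at 100 and 1,000 nM, 45 min at 4 °C, bead-bound protein quantified by label-free MS versus DMSO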
Conditions: sheet CATDS matrix 2; Gene Name ACOX1
PROPERTY MEASURED: CATDS

INSERT INTO assay_data (compound, result_number) VALUES
  ('NCC1CCC(CNc2nc(NCc3ccccc3OC(F)(F)F)ncc2[N+](=O)[O-])CC1 (stereo not shown) [BIRZ0518XX]', 0),
  ('Cc1ccccc1Cn1ccn2c(=O)cc(N3CCOCC3)nc12 [GSK2269905A]', 0),
  ('Cc1ccc(NC(=O)Nc2ccccc2F)cc1-c1ccc(C(=O)Nc2ccncc2)cc1 [GSK1398477_KCGS]', 0),
  ('NCC(NC(=O)c1cc(-c2cn[nH]c2)c(-c2ccnc3[nH]ccc23)s1)c1ccccc1 (stereo not shown) [GSK1325775A]', 0);
